Data origin, for the record: paper PMC4603705

experiment: In vivo acute toxicity test (up-and-down procedure, OECD 425); set-up: species or system mice; conditions: mouse, in vivo, sc; CD-1 mice, subcutaneous, up-and-down procedure, maximum likelihood method, 14 days
Bridge positions count the residues as written; N and C are the ends. Square brackets hold non-standard residues; d marks the D form. Peptide text beside a SMILES is read from it. * marks the point of attachment. Decanoyl = CCCCCCCCCC(=O)*; Nle = CCCC[C@H](N)C(=O)O; Dab = NCC[C@H](N)C(=O)O
Measured Property: LD50 at 14 days
Form field: result (number plus unit)

Prompt: Entry CCCCCCCCCC(=O)N[C@@H](CCN)C(=O)N[C@H](C(=O)N[C@@H](CCN)C(=O)N[C@H]1CSSC[C@H](C(N)=O)NC(=O)[C@H](CCN)NC(=O)[C@H](CCN)NC(=O)[C@H](CCCC)NC(=O)[C@@H](Cc2ccccc2)NC(=O)[C@H](CCN)NC1=O)[C@@H](C)O [Analog 38] (Decanoyl-[Dab]T[Dab]C[Dab][dF][Nle][Dab][Dab][dC]-NH2; disulfide 4-10) has what LD50 at 14 days?
Completion: 283 mg/kg
